target: Peroxisome proliferator-activated receptor gamma (Homo sapiens, UniProt P37231); experiment: Agonist activity at PPARgamma expressed in HEK293 after 8 hrs by luciferase reporter gene assay; assay type: functional, cell-based
Sequence (P37231 whole entry): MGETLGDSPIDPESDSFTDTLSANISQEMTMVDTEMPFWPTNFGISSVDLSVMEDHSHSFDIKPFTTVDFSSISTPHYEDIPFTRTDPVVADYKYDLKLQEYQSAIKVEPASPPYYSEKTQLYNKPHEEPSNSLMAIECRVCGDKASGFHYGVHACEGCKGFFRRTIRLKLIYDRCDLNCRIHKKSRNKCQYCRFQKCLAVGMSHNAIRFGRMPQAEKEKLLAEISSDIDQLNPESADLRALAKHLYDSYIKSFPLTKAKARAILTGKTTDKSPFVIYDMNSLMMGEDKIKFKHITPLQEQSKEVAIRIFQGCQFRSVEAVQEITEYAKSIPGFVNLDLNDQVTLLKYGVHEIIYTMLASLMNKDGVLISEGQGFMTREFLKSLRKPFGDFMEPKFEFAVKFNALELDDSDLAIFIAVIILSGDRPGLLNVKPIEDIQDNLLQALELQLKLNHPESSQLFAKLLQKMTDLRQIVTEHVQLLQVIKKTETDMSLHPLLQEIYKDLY
Hi there, I'd appreciate the recorded pEC50 for every entry that follows.
Numbers only, as −log10 of the molar value.

The examples below pair each entry with its known result.
> print(dat)
                                   compound  numeric.readout
1  CCOc1cc(N2C(=O)c3ccccc3C2=O)ccc1CCc1ccc(C[C@@H](CC)C(=O)O)cc1             5.16
2  CCOc1cc(N2C(=O)c3ccccc3C2=O)ccc1CCc1ccc(C[C@H](CC)C(=O)O)cc1             5.49
3  CCC(Cc1ccc(CCc2ccc(N3C(=O)c4ccccc4C3=O)cc2O)cc1)C(=O)O (configuration not stated)             4.77
4  O=C(O)CCCOc1ccc(CCc2ccc(N3C(=O)c4ccccc4C3=O)cc2)cc1             4.92

Give one value of pEC50 per listed compound.
1. CCCCOc1cc(N2C(=O)c3ccccc3C2=O)ccc1CCc1ccc(CC(CC)C(=O)O)cc1 (configuration not stated)
2. CCCOc1cc(N2C(=O)c3ccccc3C2=O)ccc1CCc1ccc(C[C@H](CC)C(=O)O)cc1
3. CC[C@H](Cc1ccc(CCc2ccc(N3C(=O)c4ccccc4C3=O)cc2OC)cc1)C(=O)O
4. CC[C@@H](Cc1ccc(CCc2ccc(N3C(=O)c4ccccc4C3=O)cc2OC)cc1)C(=O)O

*A*
1: 5.10; 2: 5.28; 3: 4.92; 4: 5.15

* * *

Target: Peroxisome proliferator-activated receptor delta (Homo sapiens, UniProt Q03181)
Sequence (Q03181 whole entry): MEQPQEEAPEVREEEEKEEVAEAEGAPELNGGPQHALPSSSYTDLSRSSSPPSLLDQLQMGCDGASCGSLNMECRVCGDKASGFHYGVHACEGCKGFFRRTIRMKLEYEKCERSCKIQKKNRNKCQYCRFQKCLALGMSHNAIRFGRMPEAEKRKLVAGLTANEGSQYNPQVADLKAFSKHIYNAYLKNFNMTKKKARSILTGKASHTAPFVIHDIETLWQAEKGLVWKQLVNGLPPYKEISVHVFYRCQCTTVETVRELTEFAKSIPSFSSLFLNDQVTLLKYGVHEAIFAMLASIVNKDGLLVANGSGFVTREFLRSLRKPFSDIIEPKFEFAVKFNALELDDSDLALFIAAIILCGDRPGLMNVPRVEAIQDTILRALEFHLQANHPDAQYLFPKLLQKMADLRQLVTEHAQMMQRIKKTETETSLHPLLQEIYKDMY
Assay: Agonist activity at PPARdelta expressed in HEK293 after 8 hrs by luciferase reporter gene assay
Measured Metric: EC50 (µM)
One number for each entry, in µM.

Give one value of EC50 per listed molecule.
1. CCCOc1cc(N2C(=O)c3ccccc3C2=O)ccc1CCc1ccc(C[C@H](CC)C(=O)O)cc1
2. O=C(O)CCc1ccc(CCc2ccc(N3C(=O)c4ccccc4C3=O)cc2)cc1

*A*
1.8
13

* * *

Hi there, I'd appreciate the recorded EC50 for every entry that follows.
molecular target: Peroxisome proliferator-activated receptor delta (Homo sapiens, UniProt Q03181); experiment: Agonist activity at PPARdelta expressed in HEK293 after 8 hrs by luciferase reporter gene assay
One number for each entry, in µM.

The examples below pair each entry with its known result.
> print(dat)
                                   molecule  numeric.readout
1  CC[C@@H](Cc1ccc(CCc2ccc(N3C(=O)c4ccccc4C3=O)cc2OC)cc1)C(=O)O              7.3
2  CCOc1cc(N2C(=O)c3ccccc3C2=O)ccc1CCc1ccc(C[C@H](CC)C(=O)O)cc1              1.9
3  CCOc1cc(N2C(=O)c3ccccc3C2=O)ccc1CCc1ccc(C[C@@H](CC)C(=O)O)cc1              9.7

Give one value of EC50 per listed molecule.
1. CCCCOc1cc(N2C(=O)c3ccccc3C2=O)ccc1CCc1ccc(CC(CC)C(=O)O)cc1 (configuration not stated)
2. CCCOc1cc(N2C(=O)c3ccccc3C2=O)ccc1CCc1ccc(CC(CC)C(=O)O)cc1 (racemic)
3. CCC(Cc1ccc(CCc2ccc(N3C(=O)c4ccccc4C3=O)cc2)cc1)C(=O)O (configuration not stated)

*A*
1. 3.2
2. 2.9
3. 14

*Q* Quick check: EC50 of CCC(Cc1ccc(CCc2ccc(N3C(=O)c4ccccc4C3=O)cc2OC)cc1)C(=O)O (racemic) ?
*A* 11

* * *

target: Peroxisome proliferator-activated receptor alpha (Homo sapiens); assay: Agonist activity at human PPARalpha expressed in HEK293 after 8 hrs by luciferase reporter gene assay relative to fenofibric acid; format: functional, cell-based
Would you mind classing the entries by Emax? Ranges: bin 0 (below 30%), bin 1 (30% to below 70%), bin 2 (70% or more)

Worked set:
> print(dat)
                                   molecule  class.assignment
1  CCOc1cc(N2C(=O)c3ccccc3C2=O)ccc1CCc1ccc(CC(CC)C(=O)O)cc1 (racemic)             bin 2
2  CCCOc1cc(N2C(=O)c3ccccc3C2=O)ccc1CCc1ccc(C[C@H](CC)C(=O)O)cc1             bin 2
3  O=C(O)COc1ccc(CCc2ccc(N3C(=O)c4ccccc4C3=O)cc2)cc1             bin 0

*Q* Pick a category. Item: CCOc1cc(N2C(=O)c3ccccc3C2=O)ccc1CCc1ccc(C[C@@H](CC)C(=O)O)cc1
*A* bin 2

*Q* CCC(Cc1ccc(CCc2ccc(N3C(=O)c4ccccc4C3=O)cc2OC)cc1)C(=O)O (racemic) , same question.
*A* bin 2

*Q* CC[C@@H](Cc1ccc(CCc2ccc(N3C(=O)c4ccccc4C3=O)cc2OC)cc1)C(=O)O , same question.
*A* bin 1

*Q* CCCCOc1cc(N2C(=O)c3ccccc3C2=O)ccc1CCc1ccc(CC(CC)C(=O)O)cc1 (centres undefined) , same question.
*A* bin 1

*Q* O=C(O)CCCOc1ccc(CCc2ccc(N3C(=O)c4ccccc4C3=O)cc2)cc1 , same question.
*A* bin 0

*Q* CC[C@H](Cc1ccc(CCc2ccc(N3C(=O)c4ccccc4C3=O)cc2OC)cc1)C(=O)O , same question.
*A* bin 2

*Q* O=C(O)CCc1ccc(CCc2ccc(N3C(=O)c4ccccc4C3=O)cc2)cc1 , same question.
*A* bin 1

*Q* CCC(Cc1ccc(CCc2ccc(N3C(=O)c4ccccc4C3=O)cc2O)cc1)C(=O)O (centres undefined) , same question.
*A* bin 0

*Q* O=C(O)c1ccc(CCc2ccc(N3C(=O)c4ccccc4C3=O)cc2)cc1 , same question.
*A* bin 0

*Q* O=C(O)CCCCc1ccc(CCc2ccc(N3C(=O)c4ccccc4C3=O)cc2)cc1 , same question.
*A* bin 0

*Q* O=C(O)CCCCCOc1ccc(CCc2ccc(N3C(=O)c4ccccc4C3=O)cc2)cc1 , same question.
*A* bin 0

*Q* O=C(O)CCCCCCc1ccc(CCc2ccc(N3C(=O)c4ccccc4C3=O)cc2)cc1 , same question.
*A* bin 0

* * *

biological target: Peroxisome proliferator-activated receptor gamma (Homo sapiens) (UniProt P37231); test: Agonist activity at PPARgamma expressed in HEK293 after 8 hrs by luciferase reporter gene assay relative to ciglitazone; type: functional, cell-based
Sequence (P37231 whole entry): as the sequence (P37231 whole entry) above
Measured Metric: Emax (%)
Answers are plain numbers, in %.

The examples below pair each entry with its known result.
> print(dat)
                                   molecule  numeric.readout
1  O=C(O)CCCCc1ccc(CCc2ccc(N3C(=O)c4ccccc4C3=O)cc2)cc1                7
2  CCC(Cc1ccc(CCc2ccc(N3C(=O)c4ccccc4C3=O)cc2O)cc1)C(=O)O (centres undefined)               21
3  O=C(O)CCCCCCc1ccc(CCc2ccc(N3C(=O)c4ccccc4C3=O)cc2)cc1                5
4  O=C(O)COc1ccc(CCc2ccc(N3C(=O)c4ccccc4C3=O)cc2)cc1                6
5  CCCOc1cc(N2C(=O)c3ccccc3C2=O)ccc1CCc1ccc(C[C@@H](CC)C(=O)O)cc1                7
6  O=C(O)CCCCCOc1ccc(CCc2ccc(N3C(=O)c4ccccc4C3=O)cc2)cc1                6

Give one value of Emax per listed molecule.
1. CCCOc1cc(N2C(=O)c3ccccc3C2=O)ccc1CCc1ccc(CC(CC)C(=O)O)cc1 (racemic)
2. CC[C@H](Cc1ccc(CCc2ccc(N3C(=O)c4ccccc4C3=O)cc2OC)cc1)C(=O)O
3. CCC(Cc1ccc(CCc2ccc(N3C(=O)c4ccccc4C3=O)cc2OC)cc1)C(=O)O (racemic)

*A*
[26, 40, 78]

* * *

Biological target: Peroxisome proliferator-activated receptor delta (Homo sapiens) (UniProt Q03181)
Sequence (whole entry): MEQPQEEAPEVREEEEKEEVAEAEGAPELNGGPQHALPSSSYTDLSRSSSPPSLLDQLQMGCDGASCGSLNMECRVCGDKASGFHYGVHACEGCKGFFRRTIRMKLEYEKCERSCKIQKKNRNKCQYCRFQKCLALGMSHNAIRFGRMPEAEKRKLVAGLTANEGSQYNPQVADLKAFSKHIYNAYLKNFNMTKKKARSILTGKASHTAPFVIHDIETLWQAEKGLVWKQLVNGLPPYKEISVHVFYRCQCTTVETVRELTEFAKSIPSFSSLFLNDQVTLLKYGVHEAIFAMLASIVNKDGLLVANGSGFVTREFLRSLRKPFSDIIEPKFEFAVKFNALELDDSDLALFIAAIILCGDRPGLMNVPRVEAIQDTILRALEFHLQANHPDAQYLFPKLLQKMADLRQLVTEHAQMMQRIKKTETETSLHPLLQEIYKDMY
Experiment: Agonist activity at human PPARdelta expressed in HEK293 after 8 hrs by luciferase reporter gene assay relative to GW501516
Type: functional, cell-based
Outcome: Y for Emax of at least 8%; N for anything lower.

Worked set:
> print(dat)
                                   compound  class.assignment
1  CCCOc1cc(N2C(=O)c3ccccc3C2=O)ccc1CCc1ccc(C[C@H](CC)C(=O)O)cc1                 Y
2  O=C(O)c1ccc(CCc2ccc(N3C(=O)c4ccccc4C3=O)cc2)cc1                 N
3  O=C(O)CCCCCCc1ccc(CCc2ccc(N3C(=O)c4ccccc4C3=O)cc2)cc1                 N

*Q* Dear colleague, could you confirm whether CCCOc1cc(N2C(=O)c3ccccc3C2=O)ccc1CCc1ccc(CC(CC)C(=O)O)cc1 (racemic) has Emax at or above 8%?
*A* Y
